Items are presented alongside their recorded GI50.
Test system: OVCAR3 cells
ASSAY_EXPLANATION: MTT proliferation assay, OVCAR3;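 note: compound given as an 8- or 10-point series, one day after plating, with exposure covering roughly 3-4 cell doublings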
Type: cell-based
CONDITION_SUMMARY: 5 days compound exposure, 1:3 serial dilution starting at 10 μM
*1 amine or outer side, *2 acyl side, *3 side chain or, on linkers, in order; H or OH if unused. Where a SMILES comes first, the peptide text is derived from it. Bridges are numbered along the chain shown (N, C = ends). [ ]: non-standard residue; d: D form. The star is where a group is joined. X39 = CN1CCC(n2cc(-c3ccc(-c4ccc(Cl)cc4C[C@@H](C(=O)[*:2])N(C)[*:1])cc3)cn2)CC1; X26 = CN([C@@H](Cc1cc(F)ccc1-c1cnn(C2CC2)c1)C(=O)[*:2])[*:1]; NMehhhLys(Me) = CN([C@@H](CCCCCCCN(C)[*:3])C(=O)[*:2])[*:1]; Oxane2carbonyl(2R-CF3) = O=C([C@@]1(C(F)(F)F)CCCCO1)*; cBuCO(3,3-F2-1-CF3) = O=C(C1(C(F)(F)F)CC(F)(F)C1)*; Pro(trans-4-F) = O=C(O)[C@@H]1C[C@@H](F)CN1; Gly(cPr) = N[C@H](C(=O)O)C1CC1
READOUT: GI50 (nM)

CC(C)C[C@@H]1NC(=O)[C@@H](N(C)C(=O)[C@@H](NC(=O)[C@@H]2C[C@@H](F)CN2C(=O)[C@@]2(C(F)(F)F)CCCCO2)C2CC2)CCCCCCCN(C)C(=O)[C@H](Cc2cc(F)ccc2-c2cnn(C3CC3)c2)N(C)C1=O [Example 147] ({Oxane2carbonyl(2R-CF3)}-[Pro(trans-4-F)][Gly(cPr)][NMehhhLys(Me)]L[X26]; lactam 3-C) :: 10
CC(C)C[C@@H]1NC(=O)[C@@H](N(C)C(=O)[C@@H](NC(=O)[C@@H]2C[C@@H](F)CN2C(=O)C2(C(F)(F)F)CC(F)(F)C2)C2CC2)CCCCCCCN(C)C(=O)[C@H](Cc2cc(Cl)ccc2-c2ccc(-c3cnn(C4CCN(C)CC4)c3)cc2)N(C)C1=O [Example 380] ({cBuCO(3,3-F2-1-CF3)}-[Pro(trans-4-F)][Gly(cPr)][NMehhhLys(Me)]L[X39]; lactam 3-C) :: 30

meta.source: patent US20240408169A1
